Overview of recorded soluble fraction (log2) for various sequences
Test: soluble fraction after stress (log2 fold change); higher = more stays soluble; pooled small domains, quantitative proteomics
Settings: stress: 50 degC
Reply briefly: the number, and no unit.

Consider the sequence HMKNAMTDIYLEEIKKILTKNEFLVYTLRELNNFSVQFITDNYDLSEKTIYNSVYRAKKKIDRHFT and give its measured soluble fraction (log2).
-0.0693

Same read-out for HMPTMVAQINEIVQAKLPGSGLKDYTIRLVESQRDGVVVWVNGTRYLGVDEVAEPQVQALLKEAVAEWERS ?
-0.132

Also need HMNDGEIAAPVSGTLQSFKVEDGQTVSEGDLVAVMEAMKMETQILATKGGTIRLLVKEGDYLQAGHALMTI , thanks.
-0.525

Thanks! And HMTNADRFIGEEAMVIKKIDDINNDGQVKIAGQVWSAVSEDKSPLEEGTIVKVIAIRGVKLVVEPVS ?
0.0662

Try HMDTNAIIGLRIKNLRTEKKYTLKYLSENTGLSIGFLSQLERGMTSIAIDSLDKISKVLDVELSSFFT next.
-1.24
